System: MCF-7
procedure-details: MTT anti-proliferative assay, MCF-7 breast cancer cells
Assay type: cell-based
condition-parameters: Homo sapiens, MCF7, 48 h exposure, mean ± SD of three separate experiments
Each entry below carries its recorded IC50.
Your answer should be a plain number; it is taken to be in µM.

Please review the entries below; each comes with its answer.
>>> numeric_value("CC(C)CN1C(=O)C(=NNC(=O)Nc2cc3cc(Br)ccc3o2)c2ccccc21 [13a]")
18.2
>>> numeric_value("COc1ccc2c(c1)C(=NNC(=O)c1cc3cc(Br)ccc3o1)C(=O)N2")
2.27
>>> numeric_value("CC(C)CN1C(=O)C(=NNC(=O)c2cc3cc(Br)ccc3o2)c2cc(Br)ccc21")
24.8
>>> numeric_value("CC(C)CN1C(=O)C(=NNC(=O)c2cc3cc(Br)ccc3o2)c2ccccc21")
37

Please give the measured IC50 for this molecule: `O=C(NN=C1C(=O)N(CCc2ccccc2)c2ccccc21)c1cc2cc(Br)ccc2o1`
24.7

Please give the measured IC50 for this molecule: `O=C(NN=C1C(=O)N(Cc2ccccc2)c2ccc(Br)cc21)c1cc2cc(Br)ccc2o1`
4.32

Please give the measured IC50 for this molecule: `C=CCN1C(=O)C(=NNC(=O)c2cc3cc(Br)ccc3o2)c2ccccc21`
2.64

Please give the measured IC50 for this molecule: `Cc1ccc2c(c1)C(=NNC(=O)c1cc3cc(Br)ccc3o1)C(=O)N2`
3.45

Please give the measured IC50 for this molecule: `CCOC(=O)CN1C(=O)C(=NNC(=O)c2cc3cc(Br)ccc3o2)c2ccccc21`
7.48

Please give the measured IC50 for this molecule: `O=C1Nc2ccccc2C1=NNC(=O)c1cc2cc(Br)ccc2o1`
5.47

Please give the measured IC50 for this molecule: O=C(NN=C1C(=O)N(Cc2ccccc2)c2ccccc21)Nc1cc2cc(Br)ccc2o1 [13b]
5.7

Please give the measured IC50 for this molecule: `O=C1Nc2ccc(Br)cc2C1=NNC(=O)c1cc2cc(Br)ccc2o1`
3.41

Please give the measured IC50 for this molecule: `O=C1Nc2ccc(F)cc2C1=NNC(=O)c1cc2cc(Br)ccc2o1`
12.9

Please give the measured IC50 for this molecule: `Cc1cc(C)c2c(c1)C(=NNC(=O)c1cc3cc(Br)ccc3o1)C(=O)N2`
12

Please give the measured IC50 for this molecule: `O=C(NN=C1C(=O)N(Cc2ccccc2)c2ccccc21)c1cc2cc(Br)ccc2o1`
8.33

Please give the measured IC50 for this molecule: `CN1C(=O)C(=NNC(=O)c2cc3cc(Br)ccc3o2)c2ccccc21`
10.4

Please give the measured IC50 for this molecule: `O=C1Nc2ccc(Cl)cc2C1=NNC(=O)c1cc2cc(Br)ccc2o1`
12.5
